- assayed_system: Human serotonin 5-HT6 receptor (Homo sapiens, UniProt P50406)
- Construct: made in house; host or cells: insect Sf21 cells (baculovirus vector BacPAK8)
- Sequence (P50406 whole entry): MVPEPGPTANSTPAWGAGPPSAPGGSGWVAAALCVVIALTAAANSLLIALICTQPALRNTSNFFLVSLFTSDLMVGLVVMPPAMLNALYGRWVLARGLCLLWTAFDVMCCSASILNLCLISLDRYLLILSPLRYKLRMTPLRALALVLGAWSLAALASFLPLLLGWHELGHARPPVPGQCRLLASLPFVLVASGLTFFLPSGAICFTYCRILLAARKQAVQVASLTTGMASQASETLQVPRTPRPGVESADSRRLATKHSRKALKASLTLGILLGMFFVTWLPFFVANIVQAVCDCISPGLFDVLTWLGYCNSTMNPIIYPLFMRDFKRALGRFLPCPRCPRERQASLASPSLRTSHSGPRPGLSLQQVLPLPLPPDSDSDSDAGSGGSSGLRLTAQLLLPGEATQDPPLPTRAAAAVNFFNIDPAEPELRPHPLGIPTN
- protocol: [3H]LSD binding assay on cloned 5-HT6 receptor membranes
- assay_context: Table 4; read-out: Binding affinity, IC50 (nM) 5-HT6
value_kind: IC50 (nM)
Return type: number; implicit unit nM.

CC1(c2ccccc2)C(=O)c2c(N3CCNCC3)cc(Cl)cc2N(Cc2ccccc2)C1=O (stereo not drawn)
2.3
CC1(c2ccc(O)cc2)C(=O)c2c(N3CCNCC3)cc(Cl)cc2N(Cc2cccc(Br)c2)C1=O (stereo not drawn)
16.8
CC1(c2ccc(O)cc2)C(=O)c2c(N3CCNCC3)cc(Cl)cc2N(Cc2ccc(-c3ccccc3)cc2)C1=O (stereo not drawn)
16.1

Note to self: IC50 recorded for COc1ccc(C2(C)C(=O)c3c(N4CCNCC4)cc(Cl)cc3N(Cc3ccc4ccccc4c3)C2=O)cc1 (stereo not drawn) was 4.7

Looking up CN1CCN(c2cc(Cl)cc3c2C(=O)C(C)(c2ccc(O)cc2)C(=O)N3Cc2ccccc2)CC1 (stereo not drawn) , I found its IC50 recorded as 2.5

For record CCN(CC)c1ccc(C2(C)C(=O)c3c(N4CCN(C)CC4)cc(Cl)cc3N(Cc3ccccc3)C2=O)cc1 (stereo not drawn) the listed IC50 is 16.8

* * *

IC50 listing for selected compounds.
- assayed_system: 5-HT1a (Homo sapiens)
- Construct: purchased Euroscreen/BioSignal Packard Inc
- Sequence (P08908 whole entry): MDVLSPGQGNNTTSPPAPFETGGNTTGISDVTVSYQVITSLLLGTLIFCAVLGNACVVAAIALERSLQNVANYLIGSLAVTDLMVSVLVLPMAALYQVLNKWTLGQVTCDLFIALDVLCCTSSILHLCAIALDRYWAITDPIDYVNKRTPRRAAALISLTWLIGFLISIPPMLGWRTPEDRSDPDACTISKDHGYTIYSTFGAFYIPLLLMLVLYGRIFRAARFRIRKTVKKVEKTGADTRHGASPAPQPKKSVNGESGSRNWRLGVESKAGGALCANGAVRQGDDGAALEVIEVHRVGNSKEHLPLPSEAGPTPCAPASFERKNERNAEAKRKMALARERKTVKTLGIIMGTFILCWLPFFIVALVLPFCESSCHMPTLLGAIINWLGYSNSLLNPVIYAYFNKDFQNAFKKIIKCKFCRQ
- protocol: Radioligand binding, 5-HT1a ([3H]8-OH-DPAT)
- assay_context: Table 4; [3H]8-OH-DPAT 0.5 nM; read-out: Binding affinity, IC50 (nM) 5-HT1a

Field: example entries. Status: answers known.
COc1ccc(C2(C)C(=O)c3c(N4CCNCC4)cc(Cl)cc3N(Cc3ccc4ccccc4c3)C2=O)cc1 (stereo not drawn) [Example 39]
> 10000 nM
CCNc1ccc([C@]2(C)C(=O)c3c(N4CCN(C)CC4)cc(Cl)cc3N(Cc3ccccc3)C2=O)cc1 (stereo in doubt) [Example 6]
> 10000 nM

Let's switch to this compound now.
The value of IC50 recorded for COc1ccc(C2(C)C(=O)c3c(N4CCN(C)CC4)cc(Cl)cc3N(Cc3cccc(N)c3)C2=O)cc1 (stereo not drawn) [Example 9] when tested on 5-HT1a (Homo sapiens) reads > 10000 nM

* * *

IC50 values by entry
- assayed_system: 5-HT2a (Homo sapiens, UniProt P28223)
- Construct: purchased Euroscreen/BioSignal Packard Inc
- Sequence (P28223 whole entry): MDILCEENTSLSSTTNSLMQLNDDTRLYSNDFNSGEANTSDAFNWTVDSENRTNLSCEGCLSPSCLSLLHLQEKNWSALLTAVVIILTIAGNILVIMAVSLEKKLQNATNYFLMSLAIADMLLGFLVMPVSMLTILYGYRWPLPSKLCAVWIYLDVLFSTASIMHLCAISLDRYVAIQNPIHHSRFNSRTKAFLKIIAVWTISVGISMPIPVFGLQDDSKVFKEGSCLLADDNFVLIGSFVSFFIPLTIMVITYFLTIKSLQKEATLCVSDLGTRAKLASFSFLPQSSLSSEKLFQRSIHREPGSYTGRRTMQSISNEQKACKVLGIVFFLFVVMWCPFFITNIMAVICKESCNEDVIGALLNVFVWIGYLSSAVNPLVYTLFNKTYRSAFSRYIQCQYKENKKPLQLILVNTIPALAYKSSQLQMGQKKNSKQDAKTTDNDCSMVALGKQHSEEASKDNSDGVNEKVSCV
- protocol: Radioligand binding, 5-HT2a ([3H]Ketanserin)
- assay_context: Table 4; [3H]Ketanserin 1 nM; read-out: Binding affinity, IC50 (nM) 5-HT2a

The cases that follow already have their IC50 on record.
COc1ccc(C2(C)C(=O)c3c(N4CCNCC4)cc(Cl)cc3N(Cc3ccc4ccccc4c3)C2=O)cc1 (stereo not shown)
> 1000 nM
CC1(c2ccc(O)cc2)C(=O)c2c(N3CCNCC3)cc(Cl)cc2N(Cc2ccc3ccccc3n2)C1=O (stereo not shown)
> 10000 nM
COc1ccc(C2(C)C(=O)c3c(N4CCNCC4)cc(Cl)cc3N(Cc3cccc(Br)c3)C2=O)cc1 (stereo not shown)
> 1000 nM

So, CC1(c2ccc(O)cc2)C(=O)c2c(N3CCNCC3)cc(Cl)cc2N(Cc2cccc(O)c2)C1=O (stereo not shown) ? Its IC50 was > 10000 nM
